Assay: NCI Yeast Anticancer Drug Screen. Data for the rad50EPP+ strain (AID 151);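 further: 0% = growth of vehicle-treated control cultures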
Settings: S. cerevisiae rad50 mutant strain, at 3.7 µM, hits give high values
This is part of a sample that, as a whole, favours compounds with a hit. Of some 79,000 tested, about 15% had one in any assay.
measured-endpoint: growth inhibition (%)
Please respond with the number in % and leave the unit unwritten.

Ask | growth inhibition for N#CNC(N)=Nc1cc2ccccc2c2ccccc12 ?
Reply | 16

Ask | growth inhibition for CCCCC/C(=C(\C#N)C(=O)OCC)c1ccccc1 ?
Reply | 3

Ask | growth inhibition for O/N=C\c1c(O)ccc2ccccc12 ?
Reply | 10

Ask | growth inhibition for CCCCCCSc1ncnc2[nH]ncc12 ?
Reply | 2

Ask | growth inhibition for COc1ccc(C(=O)C(CN(C)C)CN(C)C)cc1 ?
Reply | 19

Ask | growth inhibition for CCCOC(=O)C(F)C(Br)C(=O)OCCC (stereo unspecified) ?
Reply | 28

Ask | growth inhibition for Cc1cc2cc3cc(C)c(N)cc3nc2cc1N ?
Reply | 20

Ask | growth inhibition for CC(=O)OCC(C)Cc1cc2c(cc1Br)OCO2 (stereo unspecified) ?
Reply | -6

Ask | growth inhibition for Cc1cc(S(=O)(=O)Nc2nnc3cnc4ccccc4n23)c(S)cc1Cl ?
Reply | -16

Ask | growth inhibition for Cc1cc(C(C)(C)CC(C)(C)C)ccc1O ?
Reply | -16

Ask | growth inhibition for COC(=O)Nc1cn2ccc(C(Cl)=C(Cl)Cl)cc2n1 ?
Reply | -19

Ask | growth inhibition for CCCCCOC(=S)SC(=O)OCC ?
Reply | 9

Ask | growth inhibition for O=C1NC(=O)c2ccc([N+](=O)[O-])c3cccc1c23 ?
Reply | 51

Ask | growth inhibition for Cc1ccc(Cl)cc1NC(=O)OCCN(C)C(=O)Nc1cc(Cl)ccc1C ?
Reply | -20

Ask | growth inhibition for CN(C)c1ccc(C2CC(C)(O)Oc3cc4c(cc32)OCO4)cc1 (stereo unspecified) ?
Reply | 4

Ask | growth inhibition for Cc1ccc2c(c1)C1(SC(C)C(=O)N1c1ccc(Cl)cc1)C(=O)N2 (stereo unspecified) ?
Reply | -1

Ask | growth inhibition for Cn1c(=O)c2c(nc(N)n2C2OC(CO)C(O)C2O)n(C)c1=O (stereo unspecified) ?
Reply | 1

Ask | growth inhibition for CNC(=O)OCc1c(COC(=O)NC)c(-c2ccc(Cl)cc2)n2c1CCC2 ?
Reply | -23

Ask | growth inhibition for CCCCNC1CCC2(SCCS2)c2[nH]c3ccccc3c21 (stereo unspecified) ?
Reply | -1

Ask | growth inhibition for CCN(CC)CCN(C)CCc1ccc(Br)cc1 ?
Reply | -3

Ask | growth inhibition for C[C](C)(C)[Ge]([O][Ge]([c]1ccccc1)[c]1ccccc1)([O][Ge]([c]1ccccc1)[c]1ccccc1)[C](C)(C)C ?
Reply | 5

Ask | growth inhibition for COc1cc2ccnc(-c3c4ccccc4c(N)c4c(OC)c(OC)ccc34)c2cc1OC ?
Reply | 11

Ask | growth inhibition for Cc1cc(N(CCOS(C)(=O)=O)CCOS(C)(=O)=O)ccc1C=Nc1ccc(-c2csc(-c3ccccc3)n2)c(Cl)c1 ?
Reply | -1

Ask | growth inhibition for CCOC1(c2cccc([N+](=O)[O-])c2)c2ccccc2Oc2ccccc21 ?
Reply | 2

Ask | growth inhibition for CCCC/C=C/C(C)(C(=O)OCC)C(=O)OCC ?
Reply | 0

Ask | growth inhibition for CCOC(=O)c1ccc(NC(=O)O/N=C(/Cl)C(C)C)cc1 ?
Reply | 8

Ask | growth inhibition for Cc1cc(=O)oc2c(C)c3occc(=O)c3cc12 ?
Reply | -1

Ask | growth inhibition for N/C(=N/N=C/c1cc(Br)cc(Br)c1O)NO ?
Reply | -24

Ask | growth inhibition for CSc1nc(C)c(CCOC(C)=O)c(N=P(c2ccccc2)(c2ccccc2)c2ccccc2)n1 ?
Reply | 5

Ask | growth inhibition for N#CC(=Nc1ccccc1F)Nc1ccccc1F ?
Reply | 11

Ask | growth inhibition for COc1cc(O)c(O)c(C(C)(C)C)c1 ?
Reply | 16

Ask | growth inhibition for CCOC(=O)C(Br)C(Br)c1ccccc1Cl (stereo unspecified) ?
Reply | 62

Ask | growth inhibition for O=C(O)c1ccccc1/C=N/N=C1c2ccccc2-c2ccccc21 ?
Reply | 3

Ask | growth inhibition for O=C1C=C(Cl)C(=O)C(c2ccc(Cl)cc2)=C1 ?
Reply | 49

Ask | growth inhibition for Cc1cc(NCCCCCCCCNc2cc(C)nc3cc(N)ccc23)c2ccc(N)cc2n1 ?
Reply | -30

Ask | growth inhibition for Clc1ccc2c(c1)N(CCCN1CCCC13CCCCC3)c1ccccc1S2 ?
Reply | 3

Ask | growth inhibition for NC(=O)C(=O)NNc1ccccc1 ?
Reply | 29

Ask | growth inhibition for Oc1cccc2cc(Cl)cnc12 ?
Reply | -2

Ask | growth inhibition for CCCCOCn1c(=O)[nH]c(=O)c2cc(Br)ccc21 ?
Reply | -71

Ask | growth inhibition for CN(C)CCNC(=O)c1cccc2c1Oc1c(cccc1[N+](=O)[O-])O2 ?
Reply | 9

Ask | growth inhibition for CC(C)c1ccc(NC(=S)NC(=O)c2ccccc2)cc1 ?
Reply | 4

Source of measurements: PubChem BioAssay (NCI)
